experiment: Determination of equilibrium solubilities in aqueous solutions at various pHs; conditions: pH 1.4, simulated gastric fluid, thermodynamic from solid
VALUE TYPE: solubility thermodynamic (mM)
Give the number; mM is assumed, so skip it.

# solubility thermodynamic (molecule: CN(C)C[C@H]1CCCC[C@]1(O)c1cccc(O)c1.Cl [hydrochloride] ) is 582

----------
assay: Release in artificial intestinal juice; type: physicochemical; details: t 30 min; permeable bag, amount calculated on 100 mg free base
VALUE TYPE: Release in artificial intestinal juice, percent of the substance released (%)
Your answer is read as %, so omit the unit and give the number.

INSERT INTO measurements (compound, test_result) VALUES
  ('CCCCCCCCCC(=O)O.CN(C)CC1CCCCC1(O)c1cccc(O)c1 (stereo not shown) [C-2]', 99.77),
  ('CN(C)CC1CCCCC1(O)c1cccc(O)c1.CN(C)CC1CCCCC1(O)c1cccc(O)c1.O=C(O)C=CC(=O)O (stereo not shown) [E-1]', 100.24),
  ('CCCCCCCCCC(=O)O.CN(C)CC1CCCCC1(O)c1cccc(O)c1 (stereo not shown) [C-1]', 100.27);

Let us move to another entry and its Release in artificial intestinal juice, percent of the substance released.
The value of Release in artificial intestinal juice, percent of the substance released measured for the compound CN(C)CC1CCCCC1(O)c1cccc(O)c1.CN(C)CC1CCCCC1(O)c1cccc(O)c1.O=C(O)CCCCCCCCC(=O)O (stereo not shown) [F-2] turned out to be 101.26

----------
assay: Release in artificial intestinal juice; format: physicochemical; conditions: t 10 min; permeable bag, amount calculated on 100 mg free base
Overview of reported Release in artificial intestinal juice, percent of the substance released across a group of molecules:
Give just the numeric value; % need not be written.

Form field Release in artificial intestinal juice, percent of the substance released, entry CCCCCCCCCC(=O)O.CN(C)CC1CCCCC1(O)c1cccc(O)c1 (centres unmarked) [C-1] : 99.63

----------
assay: Release in artificial intestinal juice; assay type: physicochemical; conditions: t 2 min; permeable bag, amount calculated on 100 mg free base
VALUE TYPE: Release in artificial intestinal juice, percent of the substance released (%)
Form entry: value (%) — number only.

Here's what some known entries look like.
INSERT INTO assay_data (molecule, scale_unit, test_result) VALUES
  ('CCCCCCCCCC(=O)O.CN(C)CC1CCCCC1(O)c1cccc(O)c1 (stereo not shown) [C-1]', '%', 79.57),
  ('CCCCCCCCCCCCCCCC(=O)O.CN(C)CC1CCCCC1(O)c1cccc(O)c1', '%', 17.63),
  ('CN(C)C[C@H]1CCCC[C@]1(O)c1cccc(O)c1.Cl [HCl-2]', '%', 97.72),
  ('CN(C)CC1CCCCC1(O)c1cccc(O)c1.CN(C)CC1CCCCC1(O)c1cccc(O)c1.O=C(O)CCCCCCCCC(=O)O (stereo not shown) [F-1]', '%', 90.31),
  ('CN(C)CC1CCCCC1(O)c1cccc(O)c1.O=C(O)C=Cc1ccccc1 (stereo not shown) [A-1]', '%', 58.49),
  ('CN(C)CC1CCCCC1(O)c1cccc(O)c1.CN(C)CC1CCCCC1(O)c1cccc(O)c1.O=C(O)CCCCCCCCC(=O)O (stereo not shown) [F-2]', '%', 96.05);

Proceeding to the next molecule to report its Release in artificial intestinal juice, percent of the substance released.
Item: CN(C)CC1CCCCC1(O)c1cccc(O)c1.O=C(O)C=Cc1ccccc1 (stereo not shown) [A-2] | Release in artificial intestinal juice, percent of the substance released: 53.05
